# assayText: Mean serum concentration in neonatal piglets after intramuscular or oral administration
# Type: in vivo
# protocolConditions: pig, po, 50 mg/kg, 2h
The reader will find reported concentration at 2 h values listed item by item below.
propertyLabel: concentration at 2 h (ng/mL)

[
  {
    "compound": "CC(=CC(=O)OCCCC(=O)c1ccccc1)CC1OCC(CC2OC2C(C)C(C)O)C(O)C1O (centres unmarked) [Example 5, 4-Phenylbutan-4-onyl monate A]",
    "propertyLabel": "concentration at 2 h",
    "uom": "ng/mL",
    "reportedMeasurement": 230
  },
  {
    "compound": "CC(=CC(=O)OCCCC(=O)c1cccs1)CC1OCC(CC2OC2C(C)C(C)O)C(O)C1O (centres unmarked) [Example 4, 4(1-Thienyl-2-ylbutan-1-onyl) monate A]",
    "propertyLabel": "concentration at 2 h",
    "uom": "ng/mL",
    "reportedMeasurement": 2400
  }
]
